Form field: pIC50 (one value per entry).
EXPERIMENTAL TARGET: CDK4/cyclin D3 (Homo sapiens)
Construct: purchased Carna Biosciences, Inc. QS S Assist CDK4/Cyclin D3_FP Kit
METHOD: Human CDK4/cyclin D3 inhibitory activity (QS S Assist CDK4/Cyclin D3_FP Kit, IMAP fluorescence polarization)
Assay type: biochemical
DETAILS: Human CDK4/cyclin D3 inhibitory activity; read-out: CDK4 Activity symbol
pIC50: −log10 of the molar value.
MEASURE: pIC50

{"ENTRY SMILES": "CO[C@H](C)c1cc2cnc(Nc3ccc(N4CCNC[C@H]4C)nn3)nc2c(NC(C)C)n1", "MEASURE": "pIC50", "RECORDED MEASUREMENT": "> 8.00"}
{"ENTRY SMILES": "CC(C)Nc1nc(C(F)F)cc2cnc(Nc3ccc(NC(N)=O)cn3)nc12", "MEASURE": "pIC50", "RECORDED MEASUREMENT": "7.00 to 8.00"}
{"ENTRY SMILES": "CC(=O)NCc1ccc(Nc2ncc3cc(C(F)F)nc(NC(C)C)c3n2)nc1", "MEASURE": "pIC50", "RECORDED MEASUREMENT": "7.00 to 8.00"}
{"ENTRY SMILES": "CC(C)Nc1nc(C(F)F)cc2cnc(Nc3ccc(N4CCC(CCCO)CC4)cn3)nc12", "MEASURE": "pIC50", "RECORDED MEASUREMENT": "7.00 to 8.00"}
{"ENTRY SMILES": "CC(C)Nc1nc(C(F)F)cc2cnc(Nc3ccc(CCCN4CCCC4=O)cn3)nc12", "MEASURE": "pIC50", "RECORDED MEASUREMENT": "> 8.00"}
{"ENTRY SMILES": "CO[C@H](C)c1cc2cnc(Nc3ccc(N4CCNC(C)(C)C4=O)cn3)nc2c(NC(C)C)n1", "MEASURE": "pIC50", "RECORDED MEASUREMENT": "≤ 7.00"}
{"ENTRY SMILES": "CC(C)Nc1nc(C(F)F)cc2cnc(Nc3ccc(CN4CCN(CC(F)(F)F)CC4)cn3)nc12", "MEASURE": "pIC50", "RECORDED MEASUREMENT": "7.00 to 8.00"}
{"ENTRY SMILES": "CC(C)Nc1nc(C(F)F)cc2cnc(Nc3ccc(N4CCOCC4)cn3)nc12", "MEASURE": "pIC50", "RECORDED MEASUREMENT": "> 8.00"}

----------
EXPERIMENTAL TARGET: CDK4/cyclin D3 (Homo sapiens)
Construct: purchased Carna Biosciences, Inc. QS S Assist CDK4/Cyclin D3_FP Kit
METHOD: Human CDK4/cyclin D3 inhibitory activity (QS S Assist CDK4/Cyclin D3_FP Kit, IMAP fluorescence polarization)
Format: biochemical
DETAILS: Human CDK4/cyclin D3 inhibitory activity; read-out: CDK4 Activity symbol
pIC50: −log10 of the molar value.

{"MOLECULE": "CO[C@H](C)c1cc2cnc(Nc3ccc(CN4CCn5ccnc5C4)cn3)nc2c(NC(C)C)n1 [Compound 275]", "EXPERIMENTAL TARGET": "CDK4/cyclin D3 (Homo sapiens)", "pIC50": "7.00 to 8.00"}
{"MOLECULE": "C[C@@H](O)c1cc2cnc(Nc3ccc(CN4CCNCC4)cn3)nc2c(N[C@H]2CC[C@H](O)CC2)n1 [Compound 344]", "EXPERIMENTAL TARGET": "CDK4/cyclin D3 (Homo sapiens)", "pIC50": "> 8.00"}
{"MOLECULE": "FC(F)c1cc2cnc(Nc3ccc(N4CCNCC4)cn3)nc2c(NC2CCCC2)n1 [Compound 1]", "EXPERIMENTAL TARGET": "CDK4/cyclin D3 (Homo sapiens)", "pIC50": "> 8.00"}
{"MOLECULE": "CC(=O)c1cc2cnc(Nc3ccc(N4CCNCC4)cn3)nc2c(N(C)C(C)C)n1 [Compound 91]", "EXPERIMENTAL TARGET": "CDK4/cyclin D3 (Homo sapiens)", "pIC50": "> 8.00"}

----------
EXPERIMENTAL TARGET: CDK4/cyclin D3 (Homo sapiens, UniProt P11802)
Construct: purchased Carna Biosciences, Inc. QS S Assist CDK4/Cyclin D3_FP Kit
Sequence (P11802 whole entry): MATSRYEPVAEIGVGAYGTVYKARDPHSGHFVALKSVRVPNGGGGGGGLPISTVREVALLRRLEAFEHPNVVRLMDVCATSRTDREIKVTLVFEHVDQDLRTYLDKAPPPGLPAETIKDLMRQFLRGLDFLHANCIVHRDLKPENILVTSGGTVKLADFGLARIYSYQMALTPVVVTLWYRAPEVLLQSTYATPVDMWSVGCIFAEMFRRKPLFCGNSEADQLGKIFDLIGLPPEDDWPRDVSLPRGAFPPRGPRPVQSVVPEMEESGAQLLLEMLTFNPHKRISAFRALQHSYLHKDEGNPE
Sequence (P30281 whole entry partner): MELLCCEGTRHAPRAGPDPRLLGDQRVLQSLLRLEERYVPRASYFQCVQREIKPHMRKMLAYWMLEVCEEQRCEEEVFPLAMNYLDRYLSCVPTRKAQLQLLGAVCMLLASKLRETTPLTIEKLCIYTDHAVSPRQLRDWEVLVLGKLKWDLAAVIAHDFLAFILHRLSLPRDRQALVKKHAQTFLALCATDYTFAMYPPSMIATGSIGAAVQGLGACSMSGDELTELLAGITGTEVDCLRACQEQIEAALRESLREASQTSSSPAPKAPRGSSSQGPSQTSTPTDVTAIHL
METHOD: Human CDK4/cyclin D3 inhibitory activity (QS S Assist CDK4/Cyclin D3_FP Kit, IMAP fluorescence polarization)
Type: biochemical
DETAILS: 50% inhibitory concentration against CDK4/cyclin D3, given as class symbol
MEASURE: IC50

{"COMPOUND": "CCNc1nc([C@@H](C)O)c(C)c2cnc(Nc3ccc(CN4CCN(CCO)CC4)cn3)nc12 [Compound 1168]", "EXPERIMENTAL TARGET": "CDK4/cyclin D3 (Homo sapiens, UniProt P11802)", "RECORDED MEASUREMENT": "< 10 nM"}
{"COMPOUND": "CC(C)Nc1nc([C@@H](C)O)cc2cnc(Nc3ccc(C(=O)N4CCN(C)CC4)cn3)nc12 [Compound 1160]", "EXPERIMENTAL TARGET": "CDK4/cyclin D3 (Homo sapiens, UniProt P11802)", "RECORDED MEASUREMENT": "< 10 nM"}
{"COMPOUND": "CC(C)Nc1nc(C(C)O)cc2cnc(Nc3ccc(N4CCNC(C(F)(F)F)C4)nn3)nc12 (single isomer, unassigned) [Compound 989]", "EXPERIMENTAL TARGET": "CDK4/cyclin D3 (Homo sapiens, UniProt P11802)", "RECORDED MEASUREMENT": "< 10 nM"}
{"COMPOUND": "CO[C@H](C)c1cc2cnc(Nc3ccc(N4CCNCC4)nn3)nc2c(NC(C)(C)C)n1 [Compound 709]", "EXPERIMENTAL TARGET": "CDK4/cyclin D3 (Homo sapiens, UniProt P11802)", "RECORDED MEASUREMENT": "< 10 nM"}
{"COMPOUND": "CC(C)Nc1nc([C@@H](C)O)cc2cnc(Nc3ccc(CN4CCN(C[C@@H](C)O)CC4)cn3)nc12 [Compound 675]", "EXPERIMENTAL TARGET": "CDK4/cyclin D3 (Homo sapiens, UniProt P11802)", "RECORDED MEASUREMENT": "< 10 nM"}
{"COMPOUND": "C[C@@H](O)c1cc2cnc(Nc3ccc(N4CCNCC4)cn3)nc2c(NCC2CC2)n1 [Compound 1051]", "EXPERIMENTAL TARGET": "CDK4/cyclin D3 (Homo sapiens, UniProt P11802)", "RECORDED MEASUREMENT": "< 10 nM"}
{"COMPOUND": "C[C@@H](O)c1cc2cnc(Nc3ccc(N4CCNCC4)cn3)nc2c(NCCCF)n1 [Compound 1212]", "EXPERIMENTAL TARGET": "CDK4/cyclin D3 (Homo sapiens, UniProt P11802)", "RECORDED MEASUREMENT": "< 10 nM"}
{"COMPOUND": "CC(C)Nc1nc([C@@H](C)O)cc2cnc(Nc3ccc(N4CCC(CCC(=O)O)CC4)nn3)nc12 [Compound 828]", "EXPERIMENTAL TARGET": "CDK4/cyclin D3 (Homo sapiens, UniProt P11802)", "RECORDED MEASUREMENT": "10 to 100 nM"}
{"COMPOUND": "C[C@@H](O)c1cc2cnc(Nc3ccc(CN4CCN(CCO)CC4)cn3)nc2c(NC2CCC2)n1 [Compound 998]", "EXPERIMENTAL TARGET": "CDK4/cyclin D3 (Homo sapiens, UniProt P11802)", "RECORDED MEASUREMENT": "< 10 nM"}
{"COMPOUND": "CO[C@H](C)c1cc2cnc(Nc3ccc(CN4CCN(CCO)CC4)cn3)nc2c(N[C@@H](C)CO)n1 [Compound 915]", "EXPERIMENTAL TARGET": "CDK4/cyclin D3 (Homo sapiens, UniProt P11802)", "RECORDED MEASUREMENT": "< 10 nM"}
{"COMPOUND": "C[C@@H](O)c1cc2cnc(Nc3ccc(N4CCNCC4)cn3)nc2c(N[C@@H]2CCOC2)n1 [Compound 995]", "EXPERIMENTAL TARGET": "CDK4/cyclin D3 (Homo sapiens, UniProt P11802)", "RECORDED MEASUREMENT": "< 10 nM"}
{"COMPOUND": "CCCNc1nc([C@@H](C)O)cc2cnc(Nc3ccc(CN4CCN(CCO)CC4)c(C)n3)nc12 [Compound 1047]", "EXPERIMENTAL TARGET": "CDK4/cyclin D3 (Homo sapiens, UniProt P11802)", "RECORDED MEASUREMENT": "< 10 nM"}
{"COMPOUND": "CC(C)Nc1nc([C@@H](C)O)cc2cnc(Nc3ccc4c(n3)CCN(C(=O)CO)C4)nc12 [Compound 651]", "EXPERIMENTAL TARGET": "CDK4/cyclin D3 (Homo sapiens, UniProt P11802)", "RECORDED MEASUREMENT": "< 10 nM"}
{"COMPOUND": "CC(C)Nc1nc(C2CCOC2)cc2cnc(Nc3ccc4c(n3)CCN(CCO)C4)nc12 (stereo not drawn) [Compound 1229]", "EXPERIMENTAL TARGET": "CDK4/cyclin D3 (Homo sapiens, UniProt P11802)", "RECORDED MEASUREMENT": "< 10 nM"}
{"COMPOUND": "C[C@@H](O)c1cc2cnc(Nc3ccc(CN4CCC(CO)CC4)cn3)nc2c(NCC2CC2)n1 [Compound 1149]", "EXPERIMENTAL TARGET": "CDK4/cyclin D3 (Homo sapiens, UniProt P11802)", "RECORDED MEASUREMENT": "< 10 nM"}
{"COMPOUND": "O=C(O)C1CCN(Cc2ccc(Nc3ncc4cc(C(F)F)nc(N[C@H]5CCCOC5)c4n3)nc2)CC1 [Compound 806]", "EXPERIMENTAL TARGET": "CDK4/cyclin D3 (Homo sapiens, UniProt P11802)", "RECORDED MEASUREMENT": "< 10 nM"}
{"COMPOUND": "CC1(c2cc3cnc(Nc4ccc(CN5CCNCC5)cn4)nc3c(N[C@H]3CCCOC3)n2)COC1 [Compound 884]", "EXPERIMENTAL TARGET": "CDK4/cyclin D3 (Homo sapiens, UniProt P11802)", "RECORDED MEASUREMENT": "< 10 nM"}
{"COMPOUND": "CC(C)Nc1nc([C@@H](C)O)cc2cnc(Nc3ccc(N4CC(C)(CO)C4)nn3)nc12 [Compound 668]", "EXPERIMENTAL TARGET": "CDK4/cyclin D3 (Homo sapiens, UniProt P11802)", "RECORDED MEASUREMENT": "< 10 nM"}
{"COMPOUND": "CCCNc1nc([C@@H](C)O)cc2cnc(Nc3ccc(CN4CCC[C@@H](O)C4)cn3)nc12 [Compound 1195]", "EXPERIMENTAL TARGET": "CDK4/cyclin D3 (Homo sapiens, UniProt P11802)", "RECORDED MEASUREMENT": "< 10 nM"}
{"COMPOUND": "CC(C)CNc1nc([C@@H](C)O)cc2cnc(Nc3ccc(CN4CCCC(O)C4)cn3)nc12 (stereo partly drawn) [Compound 1085]", "EXPERIMENTAL TARGET": "CDK4/cyclin D3 (Homo sapiens, UniProt P11802)", "RECORDED MEASUREMENT": "< 10 nM"}
{"COMPOUND": "CCNc1nc([C@@H](C)O)cc2cnc(Nc3ccc(CN4CCN(CCO)CC4(C)C)cn3)nc12 [Compound 1203]", "EXPERIMENTAL TARGET": "CDK4/cyclin D3 (Homo sapiens, UniProt P11802)", "RECORDED MEASUREMENT": "10 to 100 nM"}
{"COMPOUND": "CNCCOc1ccc(Nc2ncc3cc([C@@H](C)O)nc(N[C@@H](C)COC)c3n2)nc1 [Compound 757]", "EXPERIMENTAL TARGET": "CDK4/cyclin D3 (Homo sapiens, UniProt P11802)", "RECORDED MEASUREMENT": "< 10 nM"}
{"COMPOUND": "C[C@@H](O)c1cc2cnc(Nc3ccc(N4CCNCC4=O)cn3)nc2c(NC2CC2)n1 [Compound 1044]", "EXPERIMENTAL TARGET": "CDK4/cyclin D3 (Homo sapiens, UniProt P11802)", "RECORDED MEASUREMENT": "10 to 100 nM"}
{"COMPOUND": "CC(C)Nc1nc([C@@H](C)O)cc2cnc(Nc3ccc(C(=O)N4CCC(N(C)C)CC4)cn3)nc12 [Compound 1161]", "EXPERIMENTAL TARGET": "CDK4/cyclin D3 (Homo sapiens, UniProt P11802)", "RECORDED MEASUREMENT": "< 10 nM"}
{"COMPOUND": "CO[C@H](C)c1cc2cnc(Nc3ccc(CN4CCN(CCO)CC4)cn3)nc2c(N[C@H]2CCCOC2)n1 [Compound 860]", "EXPERIMENTAL TARGET": "CDK4/cyclin D3 (Homo sapiens, UniProt P11802)", "RECORDED MEASUREMENT": "< 10 nM"}
{"COMPOUND": "CCCNc1nc([C@@H](C)OC)cc2cnc(Nc3ccc(N4CC5(CC(NC)C5)C4)cn3)nc12 [Compound 1008]", "EXPERIMENTAL TARGET": "CDK4/cyclin D3 (Homo sapiens, UniProt P11802)", "RECORDED MEASUREMENT": "< 10 nM"}
{"COMPOUND": "CC(C)Nc1nc([C@@H](C)O)cc2cnc(Nc3ccc4c(n3)CCN(CCN3CCCC3=O)C4)nc12 [Compound 955]", "EXPERIMENTAL TARGET": "CDK4/cyclin D3 (Homo sapiens, UniProt P11802)", "RECORDED MEASUREMENT": "< 10 nM"}
{"COMPOUND": "CC(C)Nc1nc([C@@H](C)O)cc2cnc(Nc3ccc(NC(=O)C4CCNCC4)cn3)nc12 [Compound 768]", "EXPERIMENTAL TARGET": "CDK4/cyclin D3 (Homo sapiens, UniProt P11802)", "RECORDED MEASUREMENT": "< 10 nM"}
{"COMPOUND": "COC[C@H](C)Nc1nc([C@@H](C)O)c(Cl)c2cnc(Nc3ccc(N4CCNCC4=O)cn3)nc12 [Compound 756]", "EXPERIMENTAL TARGET": "CDK4/cyclin D3 (Homo sapiens, UniProt P11802)", "RECORDED MEASUREMENT": "10 to 100 nM"}
{"COMPOUND": "CC(C)Nc1nc(C(C)O)cc2cnc(Nc3ccc(N4CCC(O)C(C)C4)nn3)nc12 (single isomer, unassigned) [Compound 705]", "EXPERIMENTAL TARGET": "CDK4/cyclin D3 (Homo sapiens, UniProt P11802)", "RECORDED MEASUREMENT": "< 10 nM"}
